Just for reference, the supplement of paper PMC11208160 is where these values come from.

test: recombinant barcode read abundance after kanamycin selection (control-corrected) (log10(CPM+1)); higher = more efficient recombination; sequences stand for … in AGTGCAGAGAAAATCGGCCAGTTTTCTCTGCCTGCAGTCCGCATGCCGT…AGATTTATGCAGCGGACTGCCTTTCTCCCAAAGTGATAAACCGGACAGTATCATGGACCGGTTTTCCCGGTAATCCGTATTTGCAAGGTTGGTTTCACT; site = the 11-nt target;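 also: IS621 recombinase and bridge RNA in Escherichia coli cells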
Documented recombinant barcode read abundance (log10) across a set of sequences
Write the value as a bare number.

Look over these answered cases.
Which value of recombinant barcode read abundance (log10) has been reported for ATGGGTCCTTGGGTTCTAACCTGTTGCCT (site ATAGGTCCTAG) in the records?
2.07

Here is the next sequence: GCGTTGCCTTGGGTTCTAACCTGTTGCCT (site GTGTTGCCTAG)
0.0893

What would you report for TGAGTGCCTTGGGTTCTAACCTGTTGCTT (site TGAGTGCCTAA) ?
1.1

Queued: CTAAAGTCTTGGGTTCTAACCTGTTGCAC (site CTAAAGTCTGT)
1.51

What about this sequence? CTGCGTCCTTGGGTTCTAACCTGTTGCCT (site CTGCGTCCTAG)
0.671

Same read-out for TCTGGGGCTTGGGTTCTAACCTGTTGCAG (site TCTGGGGCTCT) ?
2.15

Now the same for CACCGAGCTTGGGTTCTAACCTGTTGCTA (site CACCGAGCTTA)
0.528

Likewise for ATAGAGTCTTGGGTTCTAACCTGTTGCCG (site ATAGAGTCTCG) ?
1.95

Next:
State the recorded recombinant barcode read abundance (log10) for this entry: CCGTGAACTTGGGTTCTAACCTGTTGCCT (site CAGTGAACTAG)
0.0153

Also CGCCTCCCTTGGGTTCTAACCTGTTGCCT (site CGCCTCTCTAG) ?
0.0882

Same question, CGACGTCCTTGGGTTCTAACCTGTTGCGG (site CGACGTCCTCC) this time
1.74

Next record, please: ATCGGAGCTTGGGTTCTAACCTGTTGCAG (site ATCGGAGCTCT)
0.953

Next sequence up: TAGAACACTTGGGTTCTAACCTGTTGCCT (site TAGAACACTAG)
0.992
